measurement_description: Plasma protein binding in rat
Format: ADME, cell-free
condition_set: read-out: PPB (converted)
experimental_readout: fraction unbound
Give bare numbers.

Worked set:
Short answer for c1ccc(Nc2nc3c(s2)CCc2[nH]ncc2-3)nc1 : fraction unbound was 0.023

Short answer for c1cnc(Nc2nc3c(s2)CCc2[nH]ncc2-3)nc1 : fraction unbound was 0.105

Short answer for c1ccc(Nc2nc3c(s2)CCCc2[nH]ncc2-3)nc1 : fraction unbound was 0.011

Next, consider the following molecule.
Short answer for c1cnc(Nc2nc3c(s2)CCCc2[nH]ncc2-3)nc1 : fraction unbound was 0.006

----------
tested_on: Metabotropic glutamate receptor 4 (Homo sapiens, UniProt Q14833)
Sequence (Q14833 whole entry): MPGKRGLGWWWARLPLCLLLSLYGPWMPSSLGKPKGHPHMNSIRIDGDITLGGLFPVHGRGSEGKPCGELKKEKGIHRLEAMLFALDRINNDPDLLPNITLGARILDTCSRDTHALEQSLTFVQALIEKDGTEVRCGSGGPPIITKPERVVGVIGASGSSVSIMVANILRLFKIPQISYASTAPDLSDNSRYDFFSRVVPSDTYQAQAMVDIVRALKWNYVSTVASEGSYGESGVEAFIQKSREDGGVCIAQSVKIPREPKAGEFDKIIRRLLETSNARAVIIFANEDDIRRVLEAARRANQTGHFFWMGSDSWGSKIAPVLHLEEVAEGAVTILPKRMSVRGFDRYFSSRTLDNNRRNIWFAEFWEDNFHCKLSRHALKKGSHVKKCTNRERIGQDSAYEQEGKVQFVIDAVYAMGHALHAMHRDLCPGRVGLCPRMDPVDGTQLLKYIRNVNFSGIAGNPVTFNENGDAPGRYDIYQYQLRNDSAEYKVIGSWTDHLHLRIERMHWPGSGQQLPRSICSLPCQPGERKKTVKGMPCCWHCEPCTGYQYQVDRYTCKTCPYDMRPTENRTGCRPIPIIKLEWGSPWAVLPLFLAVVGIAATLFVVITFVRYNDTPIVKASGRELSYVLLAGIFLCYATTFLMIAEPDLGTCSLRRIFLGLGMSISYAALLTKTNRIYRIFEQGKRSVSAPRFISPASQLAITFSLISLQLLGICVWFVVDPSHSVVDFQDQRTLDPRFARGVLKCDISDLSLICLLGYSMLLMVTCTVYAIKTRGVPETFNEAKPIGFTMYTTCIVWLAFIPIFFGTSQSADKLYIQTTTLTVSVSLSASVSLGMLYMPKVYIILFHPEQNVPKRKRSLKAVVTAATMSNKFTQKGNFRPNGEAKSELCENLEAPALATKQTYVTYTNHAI
measurement_description: Positive allosteric modulation of human mGlu4 receptor expressed in BHK cells assessed as potentiation of glutamate-induced calcium mobilization after 1 hr by FLIPR assay
experimental_readout: pEC50
Answers are plain numbers, as −log10 of the molar value.

Worked set:
COc1cccc(Nc2nc3c(s2)CCCc2[nH]ncc2-3)n1 tested on Metabotropic glutamate receptor 4 (Homo sapiens, UniProt Q14833) gave pEC50: 6.19

Cc1sc(Nc2ccccn2)nc1-c1cn[nH]c1 tested on Metabotropic glutamate receptor 4 (Homo sapiens, UniProt Q14833) gave pEC50: 7.89

c1cnc(Nc2nc3c(s2)CCc2[nH]ncc2-3)nc1 tested on Metabotropic glutamate receptor 4 (Homo sapiens, UniProt Q14833) gave pEC50: 7.19

Next, consider the following molecule.
CCOc1cccc(Nc2nc3c(s2)CCCc2n[nH]cc2-3)n1 tested on Metabotropic glutamate receptor 4 (Homo sapiens, UniProt Q14833) gave pEC50: 6.54

Reference source: ChEMBL document CHEMBL1828519
